ASSAY_OVERVIEW: Elimination half life in human at 100 […], po administered as single dose and measured upto 144 hrs
Assay type: ADME, organism-based
CONDITION: in vivo, read-out: beta t1/2 (converted)
MEASURED_ATTRIBUTE: half-life (h)
Respond numerically; units are h and should not be typed.

In: Entry Cc1ccc(NC(=O)C[C@H](CCC(=O)O)c2noc([C@H]3C[C@@H](CC(C)(C)C)C3)c2C2CC2)c(Cl)c1 has what half-life?
Out: 13.2

---

pIC50: −log10 of the molar value.
MEASURED_ATTRIBUTE: pIC50

In: Param readout= pIC50; system= Histamine H2 receptor (Homo sapiens, UniProt P25021); entry= Cc1ccc(NC(=O)C[C@H](CCC(=O)O)c2noc([C@H]3C[C@@H](CC(C)(C)C)C3)c2C2CC2)c(Cl)c1 ; returns value.
Out: < 5.00
